SUBJECT_OF_TEST: human NOXA1 SH3 (Homo sapiens, UniProt Q86UR1)
Construct: GST (N, cleaved yes); made in house; host or cells: Escherichia coli BL21 STAR
Sequence (Q86UR1 399-458 limits assumed): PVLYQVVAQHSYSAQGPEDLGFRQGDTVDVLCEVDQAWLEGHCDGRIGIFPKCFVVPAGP
ASSAY_OVERVIEW: ITC, binding to human NOXA1 SH3
PROTOCOL_CONDITIONS: 18°C, 150 mM NaCl, 1 mM DTT, 50 mM HEPES, pH 7.4, peptide in syringe, human NOXA1 SH3 in cell, averaged over three to five experiments, read-out: K (Kd)
Where no end group is shown, it is not given here.
MEASUREMENT_TYPE: Kd

Req: Need Kd of TAPPPTVPTRPS [PeptideA-short] , thanks.
Resp: > 70 µM

###

SUBJECT_OF_TEST: tandem SH3 domains of human NOXO1 (Homo sapiens)
Construct: was titrated against the tandem SH3 domains as well as against the individual SH3A and SH3B domains; GST (N, cleaved yes); made in house; host or cells: Escherichia coli BL21 STAR
Sequence (Q8NFA2 163-296): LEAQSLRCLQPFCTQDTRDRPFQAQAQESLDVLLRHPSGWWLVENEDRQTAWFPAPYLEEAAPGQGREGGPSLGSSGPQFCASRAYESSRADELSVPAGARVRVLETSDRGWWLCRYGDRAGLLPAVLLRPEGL
ASSAY_OVERVIEW: ITC, binding to human NOXO1 tandem SH3 domains
PROTOCOL_CONDITIONS: 18°C, pH 7.4, titrated against tandem SH3 domains
Where no end group is shown, it is not given here.
MEASUREMENT_TYPE: Kd

Req: Sample TAPPPTVPTRPS [PeptideA-short] — what was its Kd?
Resp: ~50 µM
